- Tested on: Plutella xylostella (diamond back moth)
- experiment: Example B3: Plutella xylostella (larvicide, feeding/residual contact activity, preventive), artificial diet MTP
- Type: in vivo
- experimentalParameters: 120 h, L2 larvae on artificial diet, 5 days incubation
Entries annotated with measured pest or weed control at 400 ppm

Consider the following illustrative entries.
Task: Supply measured pest or weed control at 400 ppm of Cc1cc2c(c(C(=O)NC(C)C)c1NC(=O)c1cc(Br)nn1-c1ncccc1Cl)OCO2 in your reply.
Output: > 80%

Task: Supply measured pest or weed control at 400 ppm of CC(C)NC(=O)c1c(NC(=O)c2cc(Cl)nn2-c2ncccc2Cl)c(Cl)cc2c1OC(F)(F)O2 in your reply.
Output: > 80%

Task: Supply measured pest or weed control at 400 ppm of COc1cc(C(=O)Nc2c(Br)cc3c(c2C(=O)NC(C)C)OC(F)(F)O3)n(-c2ncccc2Cl)n1 in your reply.
Output: > 80%

Task: Supply measured pest or weed control at 400 ppm of CNC(=O)c1c(NC(=O)c2cc(Cl)nn2-c2ncccc2Cl)c(C)cc2c1OC(F)(F)O2 in your reply.
Output: > 80%

Task: Supply measured pest or weed control at 400 ppm of CNC(=O)c1c(NC(=O)c2cc(Br)nn2-c2ncccc2Cl)ccc2c1S(=O)(=O)C(C)C2 (centres unmarked) in your reply.
Output: > 80%

Continuing:
Task: Supply measured pest or weed control at 400 ppm of CCNC(=O)c1c(NC(=O)c2cc(Cl)nn2-c2ncccc2Cl)c(Cl)cc2c1OCO2 in your reply.
Output: > 80%
